Data provenance is patent US12662479B2.

# TARGET_OF_ASSAY: HiBit-BRM fusion protein (Homo sapiens, UniProt P51531)
# Construct: expressed in transfected cells
# Sequence (P51531 whole entry, the tested form may be a part): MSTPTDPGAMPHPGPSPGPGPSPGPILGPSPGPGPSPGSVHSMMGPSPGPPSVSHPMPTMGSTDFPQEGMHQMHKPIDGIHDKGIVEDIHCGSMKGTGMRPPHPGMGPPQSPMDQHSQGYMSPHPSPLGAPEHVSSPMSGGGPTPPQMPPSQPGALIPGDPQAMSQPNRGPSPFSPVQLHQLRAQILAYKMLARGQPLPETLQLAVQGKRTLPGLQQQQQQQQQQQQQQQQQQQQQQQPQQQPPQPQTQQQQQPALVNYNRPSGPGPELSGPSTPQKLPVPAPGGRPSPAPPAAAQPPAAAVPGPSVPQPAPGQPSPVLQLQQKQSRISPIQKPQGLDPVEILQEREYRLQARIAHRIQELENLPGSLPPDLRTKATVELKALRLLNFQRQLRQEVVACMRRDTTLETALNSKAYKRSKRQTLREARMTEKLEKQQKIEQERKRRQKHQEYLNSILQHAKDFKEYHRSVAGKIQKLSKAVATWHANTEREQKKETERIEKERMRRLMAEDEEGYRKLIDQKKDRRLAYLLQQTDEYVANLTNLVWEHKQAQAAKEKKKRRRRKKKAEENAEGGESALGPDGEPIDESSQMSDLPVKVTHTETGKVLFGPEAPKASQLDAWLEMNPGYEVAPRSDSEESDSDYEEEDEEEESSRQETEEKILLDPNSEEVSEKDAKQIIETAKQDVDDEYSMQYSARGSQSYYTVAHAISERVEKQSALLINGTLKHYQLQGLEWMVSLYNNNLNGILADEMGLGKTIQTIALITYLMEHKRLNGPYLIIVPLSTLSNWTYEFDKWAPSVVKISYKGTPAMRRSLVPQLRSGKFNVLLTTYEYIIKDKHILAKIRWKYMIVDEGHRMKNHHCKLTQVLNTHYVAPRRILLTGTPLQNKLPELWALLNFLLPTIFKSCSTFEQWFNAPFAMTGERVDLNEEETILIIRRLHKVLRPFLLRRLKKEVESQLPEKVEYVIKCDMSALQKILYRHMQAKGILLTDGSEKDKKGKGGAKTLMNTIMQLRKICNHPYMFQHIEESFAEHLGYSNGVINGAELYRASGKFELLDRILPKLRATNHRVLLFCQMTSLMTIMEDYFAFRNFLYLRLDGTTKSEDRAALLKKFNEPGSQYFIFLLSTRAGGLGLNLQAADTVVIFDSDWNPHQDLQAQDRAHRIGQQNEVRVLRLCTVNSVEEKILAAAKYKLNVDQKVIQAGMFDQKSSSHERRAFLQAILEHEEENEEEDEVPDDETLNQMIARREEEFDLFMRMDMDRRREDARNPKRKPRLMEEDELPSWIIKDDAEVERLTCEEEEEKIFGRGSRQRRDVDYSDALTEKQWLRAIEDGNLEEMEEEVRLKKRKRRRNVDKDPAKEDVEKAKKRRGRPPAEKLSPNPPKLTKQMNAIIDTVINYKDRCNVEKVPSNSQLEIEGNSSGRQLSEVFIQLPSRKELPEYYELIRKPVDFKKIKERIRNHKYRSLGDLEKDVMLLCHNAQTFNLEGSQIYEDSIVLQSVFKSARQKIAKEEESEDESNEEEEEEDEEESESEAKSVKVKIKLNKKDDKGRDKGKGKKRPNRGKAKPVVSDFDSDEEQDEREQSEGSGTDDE
# METHOD_DESCRIPTION: HiBiT-BRM cell-based degradation assay (Nano-Glo HiBiT Lytic Detection, 24 h)
# SETUP_CONDITIONS: HeLa cells expressing HiBiT-BRM, read-out: BRM HiBit Degradation IC50
# DC50 per entry
QUANTITY_MEASURED: DC50

* Cc1ncsc1-c1ccc(CNC(=O)[C@H]2C[C@@H](O)CN2C(=O)[C@@H](NC(=O)COCCOCCOCCNC(=O)CCCOCC[C@H](NC(=O)c2ccn(S(C)(=O)=O)c2)C(=O)Nc2nc(-c3ccccc3)cs2)C(C)(C)C)cc1 | > 10 µM
* CN(CCNc1ccc2c(c1)C(=O)N(C1CCC(=O)NC1=O)C2=O)C(=O)C1(c2cc(-c3cccc(-c4csc(NC(=O)CNC(=O)c5ccn(S(C)(=O)=O)c5)n4)c3)ccn2)CC1 (stereo not drawn) | > 10 µM
* Cc1ncsc1-c1ccc(CNC(=O)[C@@H]2C[C@@H](O)CN2C(=O)[C@@H](NC(=O)C2CC2C(=O)NCc2cccc(-c3cccc(-c4csc(NC(=O)CNC(=O)c5ccn(S(C)(=O)=O)c5)n4)c3)c2)C(C)(C)C)cc1 (stereo partly drawn) | > 10 µM

* * *

# TARGET_OF_ASSAY: HiBit-BRM fusion protein (Homo sapiens, UniProt P51531)
# Construct: expressed in transfected cells
# METHOD_DESCRIPTION: HiBiT-BRM cell-based degradation assay (Nano-Glo HiBiT Lytic Detection, 24 h)
# SETUP_CONDITIONS: HeLa cells expressing HiBiT-BRM, read-out: BRM HiBit Degradation IC50
# DC50 per entry
QUANTITY_MEASURED: DC50

• CS(=O)(=O)n1ccc(C(=O)N[C@@H](COCc2ccc(C(=O)NC3CCN(CCOc4ccc5c(c4)C(=O)N(C4CCC(=O)NC4=O)C5=O)CC3)cc2)C(=O)Nc2nc(-c3ccccc3)cs2)c1 (some centres unmarked) [Compound 247] = 100 to 1000 nM
• CS(=O)(=O)n1ccc(C(=O)NCC(=O)Nc2nc(-c3cccc(-c4cccc(CNC(=O)CCCCCCCCCCNc5ccc6c(c5)C(=O)N(C5CCC(=O)NC5=O)C6=O)c4)c3)cs2)c1 (centres unmarked) [Compound 52] = > 10000 nM
• Cc1ncsc1-c1ccc(CNC(=O)[C@@H]2C[C@@H](O)CN2C(=O)[C@@H](NC(=O)CN2CC3(CN(CC(=O)NCc4cccc(-c5cccc(-c6csc(NC(=O)CNC(=O)c7ccn(S(C)(=O)=O)c7)n6)c5)c4)C3)C2)C(C)(C)C)cc1.O=C(O)C(F)(F)F [Compound 166, trifluoroacetate] = 100 to 1000 nM
• CS(=O)(=O)n1ccc(C(=O)N[C@@H](CCOCCCC(=O)N2CC3(CCN(CCCNc4ccc5c(c4)C(=O)N(C4CCC(=O)NC4=O)C5=O)CC3)C2)C(=O)Nc2nc(-c3ccccc3)cs2)c1 (some centres unmarked) [Compound 222, formic acid] = > 10000 nM
• Cc1ncsc1-c1ccc(CNC(=O)[C@@H]2C[C@@H](O)CN2C(=O)[C@@H](NC(=O)CN2CCC(C(=O)NCc3cccc(-c4cccc(-c5csc(NC(=O)CNC(=O)c6ccn(S(C)(=O)=O)c6)n5)c4)c3)CC2)C(C)(C)C)cc1 [Compound 138] = 1000 to 10000 nM
• Cc1ncsc1-c1ccc(CNC(=O)[C@@H]2C[C@@H](O)CN2C(=O)[C@@H](NC(=O)CCCCCC(=O)NCCOc2cc(-c3cccc(-c4csc(NC(=O)CNC(=O)c5ccn(S(C)(=O)=O)c5)n4)c3)ccn2)C(C)(C)C)cc1 [Compound 85] = 100 to 1000 nM
• CS(=O)(=O)n1ccc(C(=O)N[C@@H](COCc2ccc(C(=O)NCCS(=O)(=O)CCNc3cccc4c3C(=O)N(C3CCC(=O)NC3=O)C4=O)cc2)C(=O)Nc2nc(-c3ccccc3)cs2)c1 (some centres unmarked) [Compound 190] = > 10000 nM
• CS(=O)(=O)n1ccc(C(=O)NCC(=O)Nc2nc(-c3cccc(-c4ccnc(N5CCN(C(=O)CCOCCOCCNc6cccc7c6C(=O)N(C6CCC(=O)NC6=O)C7=O)CC5)c4)c3)cs2)c1 (centres unmarked) [Compound 31] = 100 to 1000 nM
• CS(=O)(=O)n1ccc(C(=O)NCC(=O)Nc2nc(-c3cccc(-c4ccnc(C5(C(=O)NCC6CCN(CCOc7ccc8c(c7)C(=O)N(C7CCC(=O)NC7=O)C8=O)CC6)CC5)c4)c3)cs2)c1 (centres unmarked) [Compound 149] = 100 to 1000 nM
• Cc1ncsc1-c1ccc(CNC(=O)[C@@H]2C[C@@H](O)CN2C(=O)[C@@H](NC(=O)CCCCCCCCCNC(=O)CN(C)c2cc(-c3cccc(-c4csc(NC(=O)CNC(=O)c5ccn(S(C)(=O)=O)c5)n4)c3)ccn2)C(C)(C)C)cc1 [Compound 47] = < 100 nM
• CS(=O)(=O)n1ccc(C(=O)N[C@@H](CCOCCCC(=O)NCCOc2cccc(OCCNc3cccc4c3C(=O)N(C3CCC(=O)NC3=O)C4=O)c2)C(=O)Nc2nc(-c3ccccc3)cs2)c1 (some centres unmarked) [Compound 270] = > 10000 nM
• Cc1ncsc1-c1ccc(CNC(=O)[C@@H]2C[C@@H](O)CN2C(=O)[C@@H](NC(=O)CN2CC(C(=O)NCc3cccc(-c4cccc(-c5csc(NC(=O)CNC(=O)c6ccn(S(C)(=O)=O)c6)n5)c4)c3)C2)C(C)(C)C)cc1 [Compound 157] = > 10000 nM
• CS(=O)(=O)n1ccc(C(=O)N[C@@H](CCOCCCC(=O)NCCS(=O)(=O)CCNc2cccc3c2C(=O)N(C2CCC(=O)NC2=O)C3=O)C(=O)Nc2nc(-c3ccccc3)cs2)c1 (some centres unmarked) [Compound 253] = > 10000 nM
• Cc1ncsc1-c1ccc(CNC(=O)[C@@H]2C[C@@H](O)CN2C(=O)[C@@H](NC(=O)CCCCCCCCC(=O)NCCOc2cc(-c3cccc(-c4csc(NC(=O)CNC(=O)c5ccn(S(C)(=O)=O)c5)n4)c3)ccn2)C(C)(C)C)cc1 [Compound 69] = < 100 nM

* * *

# TARGET_OF_ASSAY: HiBit-BRM fusion protein (Homo sapiens, UniProt P51531)
# Construct: expressed in transfected cells
# METHOD_DESCRIPTION: HiBiT-BRM cell-based degradation assay (Nano-Glo HiBiT Lytic Detection, 24 h)
# SETUP_CONDITIONS: HeLa cells expressing HiBiT-BRM, read-out: BRM HiBit Degradation IC50
# DC50 per entry
QUANTITY_MEASURED: DC50

• CS(=O)(=O)n1ccc(C(=O)N[C@@H](CCCCNC(=O)CCOCCOCCOc2ccc3c(c2)C(=O)N(C2CCC(=O)NC2=O)C3=O)C(=O)Nc2nc(-c3ccccc3)cs2)c1 (stereo partly drawn) [Compound 291] = > 10 µM
• CN(CCNC(=O)CCCOCC[C@H](NC(=O)c1ccn(S(C)(=O)=O)c1)C(=O)Nc1nc(-c2ccccc2)cs1)CCNC(=O)COc1cccc2c1C(=O)N(C1CCC(=O)NC1=O)C2=O.O=CO (stereo partly drawn) [Compound 252, formic acid] = > 10 µM
• CS(=O)(=O)n1ccc(C(=O)N[C@@H](CCOCCCC(=O)NCCCCCCCCNc2cccc3c2C(=O)N(C2CCC(=O)NC2=O)C3=O)C(=O)Nc2nc(-c3ccccc3)cs2)c1 (stereo partly drawn) [Compound 281] = > 10 µM
• Cc1ncsc1-c1ccc(CNC(=O)[C@@H]2C[C@@H](O)CN2C(=O)[C@@H](NC(=O)COCCOCCNC(=O)CCCOCC[C@H](NC(=O)c2ccn(S(C)(=O)=O)c2)C(=O)Nc2nc(-c3ccccc3)cs2)C(C)(C)C)cc1 [Compound 249] = > 10 µM
• Cc1cc(C(=O)NCC(=O)Nc2nc(-c3cccc(-c4ccnc(N(C)CC(=O)NCCCCCCCCNC(=O)COc5cccc6c5C(=O)N(C5CCC(=O)NC5=O)C6=O)c4)c3)cs2)cn1S(C)(=O)=O (stereo not drawn) [Compound 131] = > 10 µM
• CS(=O)(=O)n1ccc(C(=O)NCC(=O)Nc2nc(-c3cccc(-c4ccnc(OCCNC(=O)CCOCCOCCOc5cccc6c5C(=O)N(C5CCC(=O)NC5=O)C6=O)c4)c3)cs2)c1 (stereo not drawn) [Compound 68] = 0.1 to 1 µM
• CS(=O)(=O)n1ccc(C(=O)N[C@@H](COCc2ccc(CNC(=O)CCCCCCOc3cccc4c3C(=O)N(C3CCC(=O)NC3=O)C4=O)cc2)C(=O)Nc2nc(-c3ccccc3)cs2)c1 (stereo partly drawn) [Compound 179] = > 10 µM
• Cc1ncsc1-c1ccc(CNC(=O)[C@@H]2C[C@@H](O)CN2C(=O)[C@@H](NC(=O)CCCCCCCCC(=O)NCc2cccc(-c3cccc(-c4csc(NC(=O)CNC(=O)c5ccn(S(C)(=O)=O)c5)n4)c3)c2)C(C)(C)C)cc1 [Compound 19] = < 0.1 µM
• CS(=O)(=O)n1ccc(C(=O)N[C@@H](COCc2ccc(C(=O)NCCOc3cccc(OCCNc4ccc5c(c4)C(=O)N(C4CCC(=O)NC4=O)C5=O)c3)cc2)C(=O)Nc2nc(-c3ccccc3)cs2)c1 (stereo partly drawn) [Compound 207] = 0.1 to 1 µM
